Data provenance is ChEMBL document CHEMBL3763148.

target: Phosphatidylinositol 4,5-bisphosphate 3-kinase catalytic subunit delta isoform (Homo sapiens); test: Inhibition of PI3Kdelta (unknown origin) incubated for 60 mins by kinase-glo luminescence assay
Sequence (O00329 whole entry, canonical isoform): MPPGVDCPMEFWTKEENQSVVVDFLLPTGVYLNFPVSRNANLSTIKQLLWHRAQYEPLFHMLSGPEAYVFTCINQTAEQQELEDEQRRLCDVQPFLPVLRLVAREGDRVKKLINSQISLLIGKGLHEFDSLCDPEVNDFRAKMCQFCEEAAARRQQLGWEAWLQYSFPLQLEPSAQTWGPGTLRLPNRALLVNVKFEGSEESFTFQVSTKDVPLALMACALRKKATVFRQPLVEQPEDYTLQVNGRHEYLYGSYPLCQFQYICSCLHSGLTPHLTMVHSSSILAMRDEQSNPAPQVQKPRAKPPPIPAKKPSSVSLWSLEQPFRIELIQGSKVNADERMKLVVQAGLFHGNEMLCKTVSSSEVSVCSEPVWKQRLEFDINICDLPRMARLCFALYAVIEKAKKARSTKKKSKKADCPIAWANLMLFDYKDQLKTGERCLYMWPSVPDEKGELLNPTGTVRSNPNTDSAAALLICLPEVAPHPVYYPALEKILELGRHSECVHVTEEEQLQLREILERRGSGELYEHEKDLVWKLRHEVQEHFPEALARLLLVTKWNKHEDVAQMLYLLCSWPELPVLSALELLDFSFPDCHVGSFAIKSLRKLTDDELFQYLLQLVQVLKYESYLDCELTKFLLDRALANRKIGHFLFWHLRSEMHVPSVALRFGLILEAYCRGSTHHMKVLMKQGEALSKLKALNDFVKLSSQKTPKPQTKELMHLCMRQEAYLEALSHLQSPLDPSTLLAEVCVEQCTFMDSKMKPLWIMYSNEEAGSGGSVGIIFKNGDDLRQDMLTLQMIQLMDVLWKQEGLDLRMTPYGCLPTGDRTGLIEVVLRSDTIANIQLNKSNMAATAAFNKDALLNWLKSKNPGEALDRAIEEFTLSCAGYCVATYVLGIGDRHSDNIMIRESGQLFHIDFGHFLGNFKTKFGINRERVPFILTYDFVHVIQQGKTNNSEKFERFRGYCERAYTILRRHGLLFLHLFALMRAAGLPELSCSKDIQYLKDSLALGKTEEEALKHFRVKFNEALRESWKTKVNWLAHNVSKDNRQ
OUTCOME_MEASURE: log10(IC50) (log10 of the value in µM)

1) O=c1nc(N2CCOCC2)oc2c(-c3cccs3)cc(Cl)cc12 1.00
2) O=c1nc(N2CCOCC2)oc2c(-c3ccsc3)cccc12 0.68
3) O=c1nc(N2CCOCC2)oc2c(-c3ccc(Cl)cc3)cccc12 1.00
4) O=c1nc(N2CCOCC2)oc2c(-c3cccc4c3oc3ccccc34)cccc12 1.08
5) O=c1nc(N2CCOCC2)oc2c(-c3ccc(CO)cc3)cccc12 0.95
6) O=c1nc(N2CCOCC2)oc2c(-c3cc4ccccc4s3)cccc12 0.57
7) O=c1nc(N2CCOCC2)oc2c(-c3cccc4c3sc3ccccc34)cccc12 0.93
8) O=c1cc(N2CCOCC2)oc2c(-c3ccccc3)cccc12 -0.02
9) O=c1nc(N2CCOCC2)oc2c(-c3cccs3)cccc12 0.65
10) COc1ccc(-c2cc(Cl)cc3c(=O)nc(N4CCOCC4)oc23)cc1 0.41
11) COc1ccc(-c2cccc3c(=O)nc(N4CCOCC4)oc23)cc1 0.43
12) O=c1nc(N2CCOCC2)oc2c(-c3cccc4ccccc34)cccc12 -0.19

====

molecular target: DNA-dependent protein kinase catalytic subunit (Homo sapiens); assay: Inhibition of human DNA-PK using EPPLSQEAFADLWKK as substrate by HTRF assay
pIC50: −log10 of the molar value.
Entry flag: criterion met if pIC50 reaches 5; criterion not met if it does not.

1) O=c1nc(N2CCOCC2)oc2c(-c3cccs3)cccc12 criterion met
2) Nc1cccc(-c2cccc3c(=O)nc(N4CCOCC4)oc23)c1 criterion not met
3) O=c1nc(N2CCOCC2)oc2c(-c3cccc4c3sc3ccccc34)cccc12 criterion met
4) O=c1nc(N2CCOCC2)oc2c(-c3cccnc3)cccc12 criterion not met
5) O=c1nc(N2CCOCC2)oc2c(-c3cccc4c3sc3ccccc34)cc(Cl)cc12 criterion met
6) O=c1cc(N2CCOCC2)oc2c(-c3ccccc3)cccc12 criterion met
7) O=c1nc(N2CCOCC2)oc2c(-c3cc4ccccc4s3)cc(Cl)cc12 criterion met
8) O=c1nc(N2CCOCC2)oc2c(-c3cc4ccccc4s3)cccc12 criterion met
9) O=c1nc(N2CCOCC2)oc2c(-c3cccc4ccccc34)cccc12 criterion not met
10) O=c1nc(N2CCOCC2)oc2c(-c3cccs3)cc(Cl)cc12 criterion met

====

molecular target: Phosphatidylinositol 4,5-bisphosphate 3-kinase catalytic subunit alpha isoform (Homo sapiens, UniProt P42336); assay: Inhibition of PI3Kalpha (unknown origin) incubated for 60 mins by kinase-glo luminescence assay
Sequence (P42336 whole entry, canonical isoform): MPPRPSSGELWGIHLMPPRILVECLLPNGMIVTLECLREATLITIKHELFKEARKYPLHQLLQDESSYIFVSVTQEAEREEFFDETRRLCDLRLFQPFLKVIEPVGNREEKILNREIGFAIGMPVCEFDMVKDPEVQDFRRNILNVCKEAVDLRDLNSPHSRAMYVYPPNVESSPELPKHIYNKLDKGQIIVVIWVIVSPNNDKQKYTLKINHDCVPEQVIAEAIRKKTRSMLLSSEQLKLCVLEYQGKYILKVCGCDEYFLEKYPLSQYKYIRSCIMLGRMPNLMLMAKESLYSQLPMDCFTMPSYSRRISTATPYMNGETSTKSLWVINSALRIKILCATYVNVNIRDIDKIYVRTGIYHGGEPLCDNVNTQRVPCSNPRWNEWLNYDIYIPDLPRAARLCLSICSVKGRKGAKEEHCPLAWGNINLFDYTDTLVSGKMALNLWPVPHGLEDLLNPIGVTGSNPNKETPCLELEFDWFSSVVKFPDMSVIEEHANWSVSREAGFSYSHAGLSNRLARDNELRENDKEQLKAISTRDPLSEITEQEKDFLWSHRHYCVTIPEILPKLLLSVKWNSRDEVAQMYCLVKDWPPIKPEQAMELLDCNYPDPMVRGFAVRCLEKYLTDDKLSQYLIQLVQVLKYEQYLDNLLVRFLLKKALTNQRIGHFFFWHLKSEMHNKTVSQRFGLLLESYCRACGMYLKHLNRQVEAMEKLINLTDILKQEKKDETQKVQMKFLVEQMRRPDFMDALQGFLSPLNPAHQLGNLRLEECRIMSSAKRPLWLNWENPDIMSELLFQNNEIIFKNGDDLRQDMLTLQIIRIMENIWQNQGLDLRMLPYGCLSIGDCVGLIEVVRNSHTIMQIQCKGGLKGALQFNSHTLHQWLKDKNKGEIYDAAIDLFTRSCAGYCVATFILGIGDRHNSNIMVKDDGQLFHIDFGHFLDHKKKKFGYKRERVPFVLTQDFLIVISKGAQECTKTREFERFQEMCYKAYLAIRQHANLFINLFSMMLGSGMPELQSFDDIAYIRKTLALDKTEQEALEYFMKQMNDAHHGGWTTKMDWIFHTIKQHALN
We begin with a simple list: items and their reported IC50.
OUTCOME_MEASURE: IC50 (µM)

1) O=c1nc(N2CCOCC2)oc2c(-c3cc4ccccc4s3)cccc12 10
2) O=c1nc(N2CCOCC2)oc2c(-c3ccsc3)cccc12 3
3) O=c1nc(N2CCOCC2)oc2c(-c3cccs3)cccc12 3.3
4) O=c1nc(N2CCOCC2)oc2c(-c3ccc(CO)cc3)cccc12 10
5) COc1ccc(-c2cccc3c(=O)nc(N4CCOCC4)oc23)cc1 2.8

====

assay: Cytotoxicity against human OVCAR8 cells assessed as cell growth inhibition at 10 uM after 48 hrs by SRB assay relative to control; format: functional; conditions: OVCAR-8, 48 h, read-out: GI
We begin with a simple list: items and their reported inhibition of growth at 10 µM.
OUTCOME_MEASURE: inhibition of growth at 10 µM (%)

1) O=c1nc(N2CCOCC2)oc2c(-c3cccc4c3oc3ccccc34)cccc12 3.88
2) COc1ccc(-c2cccc3c(=O)nc(N4CCOCC4)oc23)cc1 4.78
3) O=c1nc(N2CCOCC2)oc2c(-c3ccsc3)cccc12 3.77
4) O=c1nc(N2CCOCC2)oc2c(-c3cccc4ccccc34)cccc12 14.8
5) O=c1nc(N2CCOCC2)oc2ccc(-c3cccc4c3sc3ccccc34)cc12 0.97
6) O=c1nc(N2CCOCC2)oc2c(-c3cccs3)cccc12 5
7) NC(=O)c1ccc(-c2cccc3c(=O)nc(N4CCOCC4)oc23)cc1 -1.1
8) O=c1nc(N2CCOCC2)oc2c(-c3cccc4c3sc3ccccc34)cccc12 20.2

====

target: Phosphatidylinositol 4,5-bisphosphate 3-kinase catalytic subunit gamma isoform (Homo sapiens) (UniProt P48736); assay: Inhibition of PI3Kgamma (unknown origin) at 10 uM incubated for 60 mins by kinase-glo luminescence assay
Sequence (P48736 whole entry, looked up, canonical isoform): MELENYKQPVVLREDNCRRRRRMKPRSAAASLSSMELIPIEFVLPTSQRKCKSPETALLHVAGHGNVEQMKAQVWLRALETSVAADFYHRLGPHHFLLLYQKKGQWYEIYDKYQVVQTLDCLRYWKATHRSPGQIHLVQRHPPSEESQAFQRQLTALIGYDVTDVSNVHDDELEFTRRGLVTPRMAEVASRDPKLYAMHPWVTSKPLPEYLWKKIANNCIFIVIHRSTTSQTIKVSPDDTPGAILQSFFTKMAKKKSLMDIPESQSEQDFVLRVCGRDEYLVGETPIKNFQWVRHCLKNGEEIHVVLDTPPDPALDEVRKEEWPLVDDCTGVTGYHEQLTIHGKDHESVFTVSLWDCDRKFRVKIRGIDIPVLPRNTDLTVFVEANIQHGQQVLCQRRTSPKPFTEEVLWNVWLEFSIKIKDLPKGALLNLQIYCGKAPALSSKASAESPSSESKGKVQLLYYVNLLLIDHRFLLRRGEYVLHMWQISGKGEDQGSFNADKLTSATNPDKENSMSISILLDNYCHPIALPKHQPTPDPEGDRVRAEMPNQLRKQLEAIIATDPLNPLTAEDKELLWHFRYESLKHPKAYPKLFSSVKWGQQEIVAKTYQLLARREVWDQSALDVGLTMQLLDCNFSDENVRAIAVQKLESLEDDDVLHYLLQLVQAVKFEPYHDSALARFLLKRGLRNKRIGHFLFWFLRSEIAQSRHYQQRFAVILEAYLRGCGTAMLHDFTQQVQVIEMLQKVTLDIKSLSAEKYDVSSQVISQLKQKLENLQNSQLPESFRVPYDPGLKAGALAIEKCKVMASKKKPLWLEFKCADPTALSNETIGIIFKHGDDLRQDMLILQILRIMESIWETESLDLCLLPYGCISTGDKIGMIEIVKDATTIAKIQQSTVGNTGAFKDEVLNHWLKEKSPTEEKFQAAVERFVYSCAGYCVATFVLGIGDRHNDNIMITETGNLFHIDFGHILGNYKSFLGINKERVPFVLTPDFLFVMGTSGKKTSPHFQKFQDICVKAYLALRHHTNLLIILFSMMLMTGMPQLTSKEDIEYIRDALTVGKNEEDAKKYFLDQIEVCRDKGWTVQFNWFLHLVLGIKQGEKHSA
We begin with a simple list: items and their reported inhibition.
OUTCOME_MEASURE: inhibition (%)

1. O=c1nc(N2CCOCC2)oc2ccc(-c3cccc4c3oc3ccccc34)cc12 0
2. O=c1nc(N2CCOCC2)oc2c(-c3cccnc3)cccc12 24
3. O=c1nc(N2CCOCC2)oc2c(-c3cccc4ccccc34)cccc12 29
4. O=c1nc(N2CCOCC2)oc2ccc(-c3cccc4ccccc34)cc12 4
5. COc1ccc(-c2cccc3c(=O)nc(N4CCOCC4)oc23)cc1 7
6. COc1ccc(-c2ccc3oc(N4CCOCC4)nc(=O)c3c2)cc1 0
7. O=c1nc(N2CCOCC2)oc2c(-c3cccc4c3sc3ccccc34)cc(Cl)cc12 1
8. O=c1nc(N2CCOCC2)oc2c(-c3cc4ccccc4s3)cc(Cl)cc12 14
9. O=c1nc(N2CCOCC2)oc2ccc(-c3cccnc3)cc12 0
10. O=c1nc(N2CCOCC2)oc2ccc(-c3cc4ccccc4s3)cc12 3
11. O=c1nc(N2CCOCC2)oc2c(-c3cccc4c3oc3ccccc34)cccc12 32
12. O=c1nc(N2CCOCC2)oc2ccc(-c3cccc4c3sc3ccccc34)cc12 0
13. O=c1nc(N2CCOCC2)oc2c(-c3cc4ccccc4s3)cccc12 17
14. O=c1nc(N2CCOCC2)oc2ccc(/C=C/c3ccccc3)cc12 4
15. O=c1nc(N2CCOCC2)oc2c(-c3cccs3)cc(Cl)cc12 0
16. O=c1nc(N2CCOCC2)oc2ccc(-c3ccc(Cl)cc3)cc12 10

====

target: DNA-dependent protein kinase catalytic subunit (Homo sapiens); experiment: Inhibition of human DNA-PK using EPPLSQEAFADLWKK as substrate at 10 uM by HTRF assay
OUTCOME_MEASURE: inhibition (%)

1) O=c1nc(N2CCOCC2)oc2ccc(-c3cccc(-c4ccccc4)c3)cc12 7
2) Nc1cccc(-c2ccc3oc(N4CCOCC4)nc(=O)c3c2)c1 7
3) O=c1nc(N2CCOCC2)oc2ccc(-c3ccc(Cl)cc3)cc12 7
